# System: human liver microsomes, metabolic stability half-life
# Measurement protocol: NCATS Human Liver Microsomal (HLM) Stability Profiling
# Settings: higher = more stable; screened at 1 µM (by protocol)
Property measured: half-life (min)
Give a bare numeral; the unit min is implied.

[ask] Item under review: `CC(C)c1nn(-c2c(Cl)cccc2Cl)c2nc(Cc3ccc(OCCO)cc3)[nH]c(=O)c12` . Reported half-life?
[reply] 32.2

[ask] I have this compound here, `O=C(CCc1nnc2n(Cc3ccc(Cl)cc3)c(=O)c3ccccc3n12)NCCC1=CCCCC1` , and I need its recorded half-life.
[reply] 1.05

###

# System: human liver microsomes, metabolic stability half-life
# Measurement protocol: NCATS Human Liver Microsomal (HLM) Stability Profiling
# Settings: higher = more stable; screened at 1 µM (by protocol)
So I've got a bunch of molecules here, and I need their half-life values.

[ask] Can you look up the measured half-life of `COc1ccccc1N1CCN(CCCNc2cc(=O)n(C)c(=O)n2C)CC1` for me?
[reply] > 2 h

[ask] Fill in: half-life of `CC(C)(C)NC[C@H](O)c1cc(O)cc(O)c1` is ___
[reply] > 2 h

[ask] Fill in: half-life of CCCCCCCCC=CCCCCCCCC(=O)NCCOC(=O)CC(C(=O)O)S(=O)(=O)O (stereo not drawn) is ___
[reply] > 2 h
